quantity: H2 permeability (Barrer)

Please review the entries below; each comes with its answer.
Fill in H2 permeability for record *c1c(C)cc(-c2cc(C)c(-n3c(=O)c4cc5oc6cc7c(cc6oc5cc4c3=O)C3(CC(C)(C)c4cc5oc6cc8c(=O)n(*)c(=O)c8cc6oc5cc43)CC7(C)C)c3ccccc23)c2ccccc12 (repeat unit)
1310

Fill in H2 permeability for record */C=C/C1CC(*)CC1[Si](C)(C)C (repeat unit)
140

Fill in H2 permeability for record *c1c(C)c(C)c(N2C(=O)c3ccc(Oc4cc(C(C)(C)C)ccc4Oc4ccc5c(c4)C(=O)N(*)C5=O)cc3C2=O)c(C)c1C (repeat unit)
91

[A] *C(C(=O)OC(C)C)C(*)C(=O)OC(C)CC (repeat unit)
[B] *Oc1cc2c(cc1O*)C(=O)N(c1c(C)c(C)c(-n3c(=O)c4cc5oc6cc7c(cc6oc5cc4c3=O)C3(C(C)C)c4ccccc4C7(C(C)C)c4cc(*)c(*)cc43)c(C)c1C)C2=O (repeat unit)
Pick one: A or B . Which has the bigger H2 permeability number? Write down the label attached to your selection.
B

====

quantity: CO2 permeability (Barrer)

Please review the entries below; each comes with its answer.
Fill in CO2 permeability for record *Oc1cc(C)c(C2(c3cc(C)c(Oc4ccc(S(=O)(=O)c5ccc(*)cc5)cc4)cc3C)OC(=O)c3ccccc32)cc1C (repeat unit)
7.69

Fill in CO2 permeability for record *CC(*)[Si](C)(C)c1ccccc1 (repeat unit)
12.3

Fill in CO2 permeability for record *c1ccc(Cc2ccc(N3C(=O)c4ccc(-c5ccc6c(c5)C(=O)N(*)C6=O)cc4C3=O)c(Cl)c2)cc1Cl (repeat unit)
0.978

Fill in CO2 permeability for record */C(C)=C(/*)c1ccc([Si](C)(C)C)cc1 (repeat unit)
950

[a] *Oc1cc2c(cc1O*)C1(c3ccccc3-2)c2ccccc2-c2cc3c(cc21)Oc1c(C#N)c(*)c(*)c(C#N)c1O3 (repeat unit)
[b] *C(=C(*)c1cccc(O)c1)c1ccc(C(C)(C)C)cc1 (repeat unit)
[c] *Oc1ccc(S(=O)(=O)c2ccc(Oc3ccc(Cc4ccc(*)cc4)cc3)cc2)cc1 (repeat unit)
[d] *Oc1ccc(C(C)(C)c2ccc(OC(=O)c3cc(C(*)=O)cc(C(C)(C)C)c3)c(C)c2)cc1C (repeat unit)
[e] *Oc1c(C)cc(C(C)(C)c2cc(C)c(OC(=O)c3cc(C(*)=O)cc(C(C)(C)C)c3)c(Br)c2)cc1Br (repeat unit)
Would you mind ranking these compounds by ascending CO2 permeability? Submit the labels in the order that the ranking request calls for.
c, d, e, b, a
(c: 4.5 Barrer, d: 8 Barrer, e: 22.7 Barrer, b: 3000 Barrer, a: 8890 Barrer)

====

quantity: O2 permeability (Barrer)

Please review the entries below; each comes with its answer.
Fill in O2 permeability for record *c1ccc(Cc2ccc(N3C(=O)c4ccc(-c5ccc6c(c5)C(=O)N(*)C6=O)cc4C3=O)cc2Br)c(Br)c1 (repeat unit)
0.0923

Fill in O2 permeability for record *OC1OC(CO[N+](=O)[O-])C(OC2OC(O[N+](=O)[O-])C(O*)C(O)C2O[N+](=O)[O-])C(O)C1O[N+](=O)[O-] (repeat unit)
0.6

Fill in O2 permeability for record *Oc1ccc(C(=O)c2ccccc2-c2ccccc2C(=O)c2ccc(Oc3ccc(C(c4ccc(*)cc4)(C(F)(F)F)C(F)(F)F)cc3)cc2)cc1 (repeat unit)
0.99

[I] *c1c(C)c(C)c(N2C(=O)c3ccc(C(=O)c4ccc5c(c4)C(=O)N(*)C5=O)cc3C2=O)c(C)c1C (repeat unit)
[II] *Nc1ccc(C(C)(C)c2ccc(NC(=O)c3ccc(Oc4cc(C(C)(C)C)c(Oc5ccc(C(*)=O)cc5)cc4C(C)(C)C)cc3)cc2)cc1 (repeat unit)
Pick one: I or II . Which has the bigger O2 permeability number? Write down the label attached to your selection.
I
(I: 11.8 Barrer, II: 3.11 Barrer)

Origin of measurements: a polymer gas permeability compilation
